Hello, the source for this data is PubChem BioAssay (NCI), in case you need it.

- Tested on: M14 melanoma
- method: NCI-60 one-dose screen, 48 h (100 = growth as untreated, 0 = no growth, -100 = all killed)
- condition-notes: 10 µM
Compounds without any hit were thinned out: in the full panel of roughly 83,000, 20% have a hit.
metric: growth (%)
Give the value, in units of %, as a plain number.

A selection of reference data follows.
Cc1[nH]c(-c2nc3ccccc3[nH]2)c(C)c1C(=O)NC(C)C1CCCCC1 (centres undefined) : 83.1
CC#C[C@]1(O)CC[C@H]2[C@@H]3CCC4=CC(=O)CCC4=C3[C@@H](c3ccc4c(c3)OCO4)C[C@@]21C : 81.9
CNC(=O)c1cc(Oc2ccc(CC(=O)Nc3cc(C(C)(C)C)nn3C)cc2)ccn1 : 88

Given the entry CCCCCCCCCCCCCCCc1ccc(Cl)c(O)c1Cl (tested in a mixture with another compound) , report its measured growth.
92.2
